Origin of the recorded values: patent US20240158348A1

Tested on: ducksalad (Heteranthera limosa)
experiment_summary: Test D flooded paddy test, ducksalad
Type: in vivo
Set-up: key: 0 = no effect, 100 = complete control
setup_conditions: 250 g ai/ha, Flood; applied to paddy water at 2-leaf stage; visual rating after 13 days; scale 0 (no effect) to 100 (complete control)
outcome_measure: Plant response rating, Ducksalad
Reply briefly: the number, and no unit.

compound	target_of_assay	endpoint_result
Cc1cc(C)c(N2CCC(OCC3CCCC3)C2=O)cc1NS(=O)(=O)C(F)(F)F (stereo not shown) [Compound 57]	ducksalad (Heteranthera limosa)	90
Cc1c(N2CCCC(OC3CCC3)C2=O)cc(N(COC(=O)C(C)(C)C)S(=O)(=O)C(F)(F)F)c(C)c1F (stereo not shown) [Compound 39]	ducksalad (Heteranthera limosa)	55
Cc1c(NS(=O)(=O)C(F)(F)F)cc(N2CCCC(OC3CCC3)C2=O)c(C)c1F (stereo not shown) [Compound 36]	ducksalad (Heteranthera limosa)	65
Cc1c(N2CCC(OC3CC3)C2=O)cc(N(COC(=O)C(C)(C)C)S(=O)(=O)C(F)(F)F)c(C)c1F (stereo not shown) [Compound 23]	ducksalad (Heteranthera limosa)	80
Cc1cc(C)c(N2CCC(OC3CC3)C2=O)cc1NS(=O)(=O)C(F)(F)F (single isomer, unassigned) [Compound 29]	ducksalad (Heteranthera limosa)	45
Cc1cc(C)c(N2CC/C(=N\O)C2=O)cc1NS(=O)(=O)C(F)(F)F [Compound 10]	ducksalad (Heteranthera limosa)	90

Exam item: # input compound: CC(=O)N(c1cc(N2CCC(OC3CC3)C2=O)c(C)cc1Cl)S(=O)(=O)C(F)(F)F (stereo not shown) [Compound 38] ; wanted: its Plant response rating, Ducksalad
Marked response: 65

Exam item: # input compound: Cc1c(NS(=O)(=O)C(F)(F)F)cc(N2CCCC(OC3CC3)C2=O)c(C)c1F (stereo not shown) [Compound 35] ; wanted: its Plant response rating, Ducksalad
Marked response: 55

Exam item: # input compound: Cc1cc(C)c(N2CCC(OCC3CC3)C2=O)cc1NS(=O)(=O)C(F)(F)F (stereo not shown) [Compound 22] ; wanted: its Plant response rating, Ducksalad
Marked response: 90

Exam item: # input compound: Cc1cc(C)c(N(COC(=O)C(C)(C)C)S(=O)(=O)C(F)(F)F)cc1N1CCC(OCC2CC2(F)F)C1=O (stereo not shown) [Compound 54] ; wanted: its Plant response rating, Ducksalad
Marked response: 90

Exam item: # input compound: Cc1cc(C)c(N2CCC(O)C2=O)cc1NS(=O)(=O)C(F)(F)F (stereo not shown) [Compound 14] ; wanted: its Plant response rating, Ducksalad
Marked response: 65

Exam item: # input compound: Cc1cc(Cl)c(N(COC(=O)C(C)(C)C)S(=O)(=O)C(F)(F)F)cc1N1CCC(OC2CC2)C1=O (stereo not shown) [Compound 33] ; wanted: its Plant response rating, Ducksalad
Marked response: 80

====

Tested on: ragweed (common ragweed, Ambrosia artemisiifolia)
experiment_summary: Test C postemergence, ragweed
Type: in vivo
setup_conditions: 31 g ai/ha Postemergence; visual injury, 0 to 100 scale (0 no effect, 100 complete control)
Binary classification by Ragweed plant response rating, with 60 as an inclusive lower bound for TRUE; all other cases are FALSE.

Use the examples below as a reference point.
compound	group
C#CC(C)OC1CCN(c2cc(NS(=O)(=O)C(F)(F)F)c(C)cc2C)C1=O (stereo not drawn)	TRUE
Cc1c(NS(=O)(=O)C(F)(F)F)cc(N2CCCC(OC3CCC3)C2=O)c(C)c1F (stereo not drawn)	FALSE
COC(=O)N(c1cc(N2CCC(OC3CC3)C2=O)c(C)cc1C)S(=O)(=O)C(F)(F)F (stereo not drawn)	TRUE

Exam item: Check if Ragweed plant response rating >= 60 (inclusive). Item: CC#CCOC1CCN(c2cc(NS(=O)(=O)C(F)(F)F)c(C)cc2C)C1=O (stereo not drawn)
Marked response: TRUE

====

Test system: ryegrass, Italian (Italian ryegrass, Lolium multiflorum)
experiment_summary: Test A preemergence, Italian ryegrass
Format: in vivo
setup_conditions: pre-emergence, 240 h, 125 g ai/ha, 0 to 100 scale, 10 days, read-out: Plant response rating, Ryegrass, Italian
outcome_measure: pest or weed control at 125 g/ha
The reply should consist of the numeric value with the unit placed after it.

compound	endpoint_result
Cc1cc(C)c(N(COC(=O)C(C)(C)C)S(=O)(=O)C(F)(F)F)cc1N1CCC(OC2CCCC2)C1=O (stereo not shown)	90%
Cc1cc(C)c(N2CCC(OC3CCC3)C2=O)cc1NS(=O)(=O)C(F)(F)F (stereo not shown)	100%
C=CCOC1CCN(c2cc(NS(=O)(=O)C(F)(F)F)c(C)cc2C)C1=O (stereo not shown)	100%

Exam item: # input compound: Cc1cc(C)c(N(COC(=O)C(C)(C)C)S(=O)(=O)C(F)(F)F)cc1N1CCC(OC2CCC2)C1=O (stereo not shown) ; wanted: its pest or weed control at 125 g/ha
Marked response: 90%

====

pest or weed control at 125 g/ha overview
Test system: ragweed (common ragweed, Ambrosia artemisiifolia)
experiment_summary: Test A preemergence, ragweed
Format: in vivo
setup_conditions: pre-emergence, 240 h, 125 g ai/ha, 0 to 100 scale, 10 days, read-out: Plant response rating, Ragweed
Write the answer as a number in %, unit excluded.

These solved cases illustrate the format of a correct answer.
compound	target_of_assay	outcome_measure	endpoint_result
Cc1cc(C)c(N(COC(=O)C(C)(C)C)S(=O)(=O)C(F)(F)F)cc1N1CCC(OC2CCCC2)C1=O (stereo not shown)	ragweed (common ragweed, Ambrosia artemisiifolia)	pest or weed control at 125 g/ha	40
C=CCOC1CCN(c2cc(NS(=O)(=O)C(F)(F)F)c(C)cc2C)C1=O (stereo not shown)	ragweed (common ragweed, Ambrosia artemisiifolia)	pest or weed control at 125 g/ha	80

Exam item: # input compound: Cc1cc(C)c(N2CCC(OC3CCCC3)C2=O)cc1NS(=O)(=O)C(F)(F)F (stereo not shown) ; wanted: its pest or weed control at 125 g/ha
Marked response: 90

Exam item: # input compound: Cc1cc(C)c(N2CCC(OC3CCC3)C2=O)cc1NS(=O)(=O)C(F)(F)F (stereo not shown) ; wanted: its pest or weed control at 125 g/ha
Marked response: 100

====

Tested on: ryegrass, Italian (Italian ryegrass, Lolium multiflorum)
experiment_summary: Test C postemergence, Italian ryegrass
Assay type: in vivo
setup_conditions: 125 g ai/ha Postemergence; 0 is no effect, 100 is complete control
Plant response rating (0 to 100 scale), Ryegrass, Italian overview
Reply briefly: the number, and no unit.

These solved cases illustrate the format of a correct answer.
molecule	endpoint_result
CC(=O)N(c1cc(N2CCC(OC3CC3)C2=O)c(C)cc1C)S(=O)(=O)C(F)(F)F (stereo not shown)	90
CCO/N=C1\CCN(c2cc(NS(=O)(=O)C(F)(F)F)c(C)cc2C)C1=O	80
Cc1cc(C)c(N(C(=O)OCC(C)C)S(=O)(=O)C(F)(F)F)cc1N1CCC(OC2CC2)C1=O (stereo not shown)	100
Cc1cc(C)c(N2CC/C(=N\O)C2=O)cc1NS(=O)(=O)C(F)(F)F	80
CCOC(=O)N(c1cc(N2CCC(OC3CC3)C2=O)c(C)cc1C)S(=O)(=O)C(F)(F)F (stereo not shown)	50
C=CCO/N=C1\CCN(c2cc(NS(=O)(=O)C(F)(F)F)c(C)cc2C)C1=O	30

Exam item: # input molecule: COC(=O)N(c1cc(N2CCC(OC3CC3)C2=O)c(C)cc1C)S(=O)(=O)C(F)(F)F (stereo not shown) ; wanted: its Plant response rating (0 to 100 scale), Ryegrass, Italian
Marked response: 0

Exam item: # input molecule: Cc1cc(C)c(N2CCC(OCC3CC3)C2=O)cc1NS(=O)(=O)C(F)(F)F (stereo not shown) ; wanted: its Plant response rating (0 to 100 scale), Ryegrass, Italian
Marked response: 80

Exam item: # input molecule: CCCC(=O)OCN(c1cc(N2CCC(OC3CC3)C2=O)c(C)cc1C)S(=O)(=O)C(F)(F)F (stereo not shown) ; wanted: its Plant response rating (0 to 100 scale), Ryegrass, Italian
Marked response: 100

Exam item: # input molecule: Cc1cc(C)c(N2CCC(O)C2=O)cc1NS(=O)(=O)C(F)(F)F (stereo not shown) ; wanted: its Plant response rating (0 to 100 scale), Ryegrass, Italian
Marked response: 100

====

Plant response rating, Goosegrass overview
Test system: goosegrass (Eleusine indica)
experiment_summary: Test A preemergence, goosegrass
Assay type: in vivo
setup_conditions: 31 g ai/ha, 0 to 100 scale, 10 days
Excerpt: […]
Reply briefly: the number, and no unit.

These solved cases illustrate the format of a correct answer.
compound	outcome_measure	endpoint_result
Cc1cc(C)c(N(COC(=O)C(C)(C)C)S(=O)(=O)C(F)(F)F)cc1N1CCC(OC2CCC2)C1=O (stereo not drawn) [Compound 8]	Plant response rating, Goosegrass	70
Cc1cc(C)c(N2CCC(OC3CC3)C2=O)cc1NS(=O)(=O)C(F)(F)F (stereo not drawn) [Compound 3]	Plant response rating, Goosegrass	70
Cc1cc(C)c(N(COC(=O)C(C)(C)C)S(=O)(=O)C(F)(F)F)cc1N1CCC(OC2CCCC2)C1=O (stereo not drawn) [Compound 5]	Plant response rating, Goosegrass	10
Cc1cc(C)c(N(COC(=O)C(C)(C)C)S(=O)(=O)C(F)(F)F)cc1N1CCC(OC2CC2)C1=O (stereo not drawn) [Compound 7]	Plant response rating, Goosegrass	80
Cc1cc(C)c(N2CCC(OC3CCC3)C2=O)cc1NS(=O)(=O)C(F)(F)F (stereo not drawn) [Compound 4]	Plant response rating, Goosegrass	100

API: the following record is the query input.
Exam item: Lab note: need Plant response rating, Goosegrass for Cc1cc(C)c(N2CCC(OC3CCCC3)C2=O)cc1NS(=O)(=O)C(F)(F)F (stereo not drawn) [Compound 6] on goosegrass (Eleusine indica), anyone have it?
Marked response: 90
